Tested on: Es-2
Assay: Primary qHTS to identify gynecologic anti-cancer compounds using libraries of approved drugs and bioactive compounds (AID 1345084); further: nearly all actives have a fitted effect of over 55% in size
Details: Gynecologic cancer cell panel viability, ATPlite luminescence, 48 h; series mostly up to 57.5 µM
Results filed as inconclusive are left out. Active and inactive are the calls of the source. The call rests on the fitted dose curve; in most records, active means well fitted cell-killing curve with a large enough effect; inconclusive means small, poorly fitted or top-dose-only effect, or effect the other way; inactive means flat fitted curve, though single readings scatter.
Result category, one only: true (1) for active, false (0) for inactive

C=C[C@@]12COC(=O)C(=C)C1[C@@H](O)[C@H](C(=C)C(=O)OC)[C@@H](OC(=O)C(=C)CO)C2 (some centres not stated) : false (0)
C=CC/C=C\C/C=C\CCCCCCCc1cccc(O)c1C(=O)O : false (0)
C=C1C(OC(C)=O)CCC2(C)CC3(OC)OC(=O)C(C)=C3CC12 (configuration not stated) : false (0)
CC(=O)OC1C(O)CC2(C)C(CCC(C)C23Cc2c(O)cc(CO)c(C=O)c2O3)C1(C)C (configuration not stated) : false (0)
COC(=O)CCc1cc2ccoc2c(OC)c1O[C@@H]1O[C@H](CO)[C@@H](O)[C@H](O)[C@H]1O : false (0)
CN1CCN(c2ccc(C(=O)Nc3n[nH]c4ccc(Cc5cc(F)cc(F)c5)cc34)c(NC3CCOCC3)c2)CC1 : false (0)
COC(=O)[C@@]1(c2ccc(C)cc2)C[C@H]1CN1CCC(O)(c2ccccc2)CC1 : false (0)
C=C(C(=O)O)C1CCC2(C)CCC(O)C(=C)C2C1 (configuration not stated) : false (0)

*Q* Could you please tell me the result logged for Cc1ccc(-c2c(C(=O)CF)n(CCCO)c3ncnc(N)c23)cc1 in this assay?
*A* false (0)

*Q* Could you please tell me the result logged for C[C@]12C[C@@H](O)[C@@H]3C[C@@]1(O[C@@H]1O[C@H](CO)[C@@H](O)[C@H](O)[C@H]1O)[C@]3(COC(=O)c1ccccc1)C(=O)O2 in this assay?
*A* false (0)

*Q* Could you please tell me the result logged for CC(C)N(CCCCOCC(=O)NS(C)(=O)=O)c1cnc(-c2ccccc2)c(-c2ccccc2)n1 in this assay?
*A* false (0)

*Q* Could you please tell me the result logged for CC(C)(C)C(=O)CN1C(=O)[C@H](NC(=O)Nc2cccc(C(=O)O)c2)CN(C2CCCCC2)c2ccccc21 in this assay?
*A* false (0)

*Q* Could you please tell me the result logged for CC/C=C\[C@H](O)[C@H](O)C1=C(C)C(=O)[C@]2(O1)C(=O)N[C@@](OC)(C(=O)c1ccccc1)[C@@H]2O in this assay?
*A* false (0)

*Q* Could you please tell me the result logged for CC[C@H]1OC(=O)[C@](C)(F)C(=O)[C@H](C)[C@@H](O[C@@H]2O[C@H](C)C[C@H](N(C)C)[C@H]2O)[C@](C)(OC)C[C@@H](C)C(=O)[C@@H](C)[C@H]2N(CCCCn3cc(-c4cccc(N)c4)nn3)C(=O)O[C@]12C in this assay?
*A* false (0)

*Q* Could you please tell me the result logged for C=CCC1=C[C@]2(OC)[C@H](C)[C@@H](c3ccc(O)c(OC)c3)O[C@]2(OC)CC1=O in this assay?
*A* false (0)

*Q* Could you please tell me the result logged for Cc1cc(=O)oc2c(C=O)c(O)ccc12 in this assay?
*A* false (0)

*Q* Could you please tell me the result logged for COc1ccc(C(=O)C2CCN(CC(=O)N(Cc3nc4c(c(=O)[nH]3)COCC4)CC3CC3)CC2)cc1 in this assay?
*A* false (0)

*Q* Could you please tell me the result logged for COc1c2ccoc2cc2oc(CO[C@@H]3O[C@H](CO)[C@@H](O)[C@H](O)[C@H]3O)cc(=O)c12 in this assay?
*A* false (0)

*Q* Could you please tell me the result logged for C/C=C/C=C/C(O)=C1\C(=O)[C@]2(C)C3C(C(=O)CC/C=C/C)=C(O)C4(C)C1[C@]1(C)O[C@@]4(O)[C@@]3(C)O[C@@]12O in this assay?
*A* false (0)

*Q* Could you please tell me the result logged for CCO[C@@H]1OC(=O)C[C@@H]1NC(=O)[C@@H]1CCCN1C(=O)[C@@H](NC(=O)c1ccc(N)c(Cl)c1)C(C)(C)C in this assay?
*A* false (0)

*Q* Could you please tell me the result logged for O=C(/C=C\n1cnc(-c2cc(C(F)(F)F)cc(C(F)(F)F)c2)n1)N1CC(F)(F)C1 in this assay?
*A* true (1)

*Q* Could you please tell me the result logged for Cc1c(F)cc(C(=O)NC2CC2)cc1-c1c(F)cn2c(C(C)(C)C)nnc2c1F in this assay?
*A* false (0)

*Q* Could you please tell me the result logged for COc1ccc2nc(S(=O)(=O)Cc3ncc(C)c(OC)c3C)[nH]c2c1 in this assay?
*A* false (0)

*Q* Could you please tell me the result logged for COC(=O)C[C@H]1C(C)(C)[C@H](OC(=O)C(C)C)[C@@]2(O)C(=O)[C@]1(C)C1CC[C@]3(C)C(CC(=O)O[C@H]3c3ccoc3)[C@]13O[C@@H]32 (some centres not stated) in this assay?
*A* false (0)

---

Test system: SKOV3
Assay: Primary qHTS to identify gynecologic anti-cancer compounds using libraries of approved drugs and bioactive compounds (AID 1345084); further: nearly all actives have a fitted effect of over 55% in size
Details: Gynecologic cancer cell panel viability, ATPlite luminescence, 48 h; series mostly up to 57.5 µM
Records with an inconclusive call do not appear. The source made the active and inactive calls. The call rests on the fitted dose curve; in most records, active means well fitted cell-killing curve with a large enough effect; inconclusive means small, poorly fitted or top-dose-only effect, or effect the other way; inactive means flat fitted curve, though single readings scatter.
Result category, one only: Yes (active), No (inactive)

C(#Cc1nc2ncccc2nc1OCCN1CCCC1)c1ccccc1 : Yes
O=C1NC2CCc3nc4ccccc4c(=O)n3C2=Nc2ccccc21 (configuration not stated) : No
COC(=O)c1ccccc1O[C@@H]1O[C@H](CO)[C@@H](O)[C@H](O)[C@H]1O[C@@H]1O[C@@H](C)[C@H](O)[C@@H](O)[C@H]1O : No
C/C=C/C=C/C(O)=C1\C(O)=C(C)C(=O)[C@@]2(C)OC(=O)[C@@](C)(NC(=O)/C=C/C(=O)O)[C@@H]12 : No
CC(C)S(=O)(=O)NC[C@H](C)c1ccc(NC(=O)c2cc(F)cc(F)c2)cc1 : No
CCNCc1nc2c(N)nc3ccccc3c2n1CC(C)(C)O : No
O=C(Nc1ccc(S(=O)(=O)Nc2ccccc2Cl)c(Cl)c1)c1ccccn1 : No
COC(=O)C1=COC(OC2OC(CO)C(O)C(O)C2O)C2C1C=CC2(O)CO (configuration not stated) : No
C=C(C)C1CC[C@]2(C(=O)O)CC[C@]3(C(=O)O)[C@H](CCC4[C@@]5(C)CC[C@H](O)C(C)(C)C5CC[C@]43C)C12 (some centres not stated) : No
O=C(N/N=C/c1ccc(O)c(O)c1)c1cc2ccccc2cc1O : No

*Q* Could you please tell me the result logged for COc1ccc(N2CCOCC2)c2sc(NC(=O)N3CCC(C)(O)CC3)nc12 in this assay?
*A* No

*Q* Could you please tell me the result logged for CNC12CC3C[C@@](C)(C1)C[C@](C)(C3)C2 in this assay?
*A* No

*Q* Could you please tell me the result logged for O=C1C=CC2OC(c3ccccc3)C(O)C2O1 (configuration not stated) in this assay?
*A* No

*Q* Could you please tell me the result logged for CCO[C@@H]1OC(=O)C[C@@H]1NC(=O)[C@@H]1CCCN1C(=O)[C@@H](NC(=O)c1ccc(N)c(Cl)c1)C(C)(C)C in this assay?
*A* No

*Q* Could you please tell me the result logged for Cc1ccc(C)c(OCCn2cc(C(=O)O)c3ccccc32)c1 in this assay?
*A* No

---

Assay: P-glycoprotein substrates identified in KB-8-5-11 adenocarcinoma cell line, qHTS therapeutic library screen (AID 1346987); further: nearly all actives have a fitted effect of over 65% in size
Conditions: KB-8-5-11 (P-gp overexpressing) viability, CellTiter-Glo, 72 h; series mostly up to 44.5 µM
Records with an inconclusive call do not appear. The source made the active and inactive calls. The call rests on the fitted dose curve; in most records, active means well fitted inhibition curve with a large enough effect; inconclusive means small, poorly fitted or top-dose-only effect; inactive means flat fitted curve, though single readings scatter.
Result category, one only: active, inactive

COc1cc(/C=C/C(=O)OC[C@H]2O[C@@](CO)(O[C@H]3O[C@H](CO)[C@@H](O)[C@H](O)[C@H]3O)[C@@H](OC(=O)/C=C/c3ccc(O)c(OC)c3)[C@@H]2O)ccc1O : inactive
C=C1CCC2C(C)(C)C(O)CCC2(C)C1CCC(C)CCO (centres undefined) : inactive
C[C@@H]1C(=O)OC[C@H]2C(C(=O)O)=C[C@@H]3CC(C)(C)C[C@]312 : inactive
CC(CO)C1CCC2(C)CC3C(CO)CC(O)C3C(C)(O)C/C=C/12 (centres undefined) : inactive
O=C1NC(=O)C(c2cn3c4c(cccc24)CCC3)C1c1c[nH]c2ccccc12 (centres undefined) : active
CC12CCC3c4ccc(O)cc4CCC3C1CC(OC1OC(C(=O)O)C(O)C(O)C1O)C2O (centres undefined) : inactive

*Q* Could you please tell me the result logged for OC[C@H]1O[C@@H](OCCc2ccccc2)[C@H](O[C@@H]2OC[C@](O)(CO)[C@H]2O)[C@@H](O)[C@@H]1O in this assay?
*A* inactive

*Q* Could you please tell me the result logged for O=C(O)c1cn(C2CC2)c2cc(N3C[C@@H]4C[C@H]3CN4)c(F)cc2c1=O in this assay?
*A* inactive

*Q* Could you please tell me the result logged for Cn1cncc1C(N)(c1ccc(Cl)cc1)c1ccc2c(c1)c(-c1cccc(Cl)c1)cc(=O)n2C (centres undefined) in this assay?
*A* active

*Q* Could you please tell me the result logged for C=C1CCC2C(C(C)(C)O)CCC2(C)CC(O)C(=C)CCC1O (centres undefined) in this assay?
*A* inactive
